The reported measurements were obtained from PubChem BioAssay AID1159580.

Experiment Summary: chemical genetic growth profiling, strain panel (AID 1159580);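 also: tested at 20 µM; growth read once vehicle control cultures reached saturation at 30 °C; 1 = growth at the plate median or of vehicle wells; lower values mean less growth of the strain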
Condition Details: S. cerevisiae deletion strains, growth OD, locus YJL157C, strain FAR1, hits give low values
The campaign covered roughly 5,500 compounds. About 2,000 (36%) were called active. Inconclusive results (about 18%) are left out. This is one part of the list.
Readout Name: normalized growth

Record excerpt, results attached:
CC(=O)C(Sc1nc2ccccc2s1)C(C)=O = 0.68 (active)
CCCCCCCC1CCC/C1=N/OC(=O)c1cccs1 (stereo not drawn) = 0.967 (inactive)
OC(c1ccc(C(F)(F)F)cc1)c1cccc(C(F)(F)F)c1 (stereo not drawn) = 1.01 (inactive)
CC1(C)C/C(=N/Nc2ccc(C(F)(F)F)cc2)c2cc(C(C)(C)C)c(O)c(O)c2O1 = 0.896 (inactive)

Would you be so kind as to report normalized growth for each listed record?
1. Nc1cc(-c2ccc(OC(F)(F)F)cc2)nn1-c1ccc(Cl)c(Cl)c1
2. C/C(=N/OC(=O)Nc1ccc(Cl)cc1)c1ccc2c(c1)CCO2

Result block:
1: 0.706 (active); 2: 0.852 (inactive)

Provide normalized growth for all items below, preserving their order.
1. O=C1/C(=C/c2c(F)cccc2Cl)Cc2ccccc21
2. COCCOc1ccccc1NC(=S)SCCSC(=S)Nc1ccccc1OCCOC

Result block:
1. 0.945 (inactive)
2. 0.924 (inactive)

Provide normalized growth values for the following items, in order.
1. N=C(N)SCc1nc(-c2ccc(Cl)cc2)no1
2. CCCCCc1ccc(S(=O)(=O)Nc2ccc3c(c2)C(=O)OC3)cc1

Result block:
1. 0.974 (inactive)
2. 0.953 (inactive)

I'm hoping you can list normalized growth for every molecule here, please.
1. COc1ccccc1NC(=O)Nc1nn(C)c2cccc(OC)c12
2. COc1cc(Cl)c(NS(=O)(=O)c2cc(Br)c(Br)s2)c(OC)c1

Result block:
1: 0.816 (inactive); 2: 0.919 (inactive)

###

Experiment Summary: chemical genetic growth profiling, strain panel (AID 1159580);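 also: tested at 20 µM; growth read once vehicle control cultures reached saturation at 30 °C; 1 = growth at the plate median or of vehicle wells; lower values mean less growth of the strain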
Condition Details: S. cerevisiae deletion strains, growth OD, locus YIR030C, strain dcg1, hits give low values
The campaign covered roughly 5,500 compounds. About 2,000 (36%) were called active. Inconclusive results (about 18%) are left out. This is one part of the list.
Readout Name: normalized growth
One number for each entry.

CC[C@@H](C(=O)O)[C@@H]1O[C@@H]([C@@H](C)[C@H](O)[C@H](C)C(=O)[C@H](CC)[C@H]2O[C@]3(C=C[C@@H](O)[C@]4(CC[C@@](C)(C5CC[C@](O)(CC)[C@H](C)O5)O4)O3)[C@H](C)C[C@@H]2C)[C@@H](C)C[C@H]1C (some centres undefined) = 0.461
COc1ccccc1-c1cc(=O)c2cccc(OC)c2o1 = 0.977
COc1ccccc1-c1cc(=O)c2c(OC)cccc2o1 = 0.969
CC[C@@H](C(=O)[C@@H](C)[C@@H](O)[C@H](C)[C@@H]1O[C@@H]([C@@H](CC)C(=O)O)CC[C@@H]1C)[C@H]1OC2(C=C[C@@H](O)[C@]3(CC[C@@](C)([C@H]4CC[C@](O)(CC)[C@H](C)O4)O3)O2)[C@H](C)C[C@@H]1C (some centres undefined) = 0.892
COc1cc(C(=O)O)c(O)c2c1OCO2 = 1

Would you mind listing normalized growth for each of the following compounds?
1. O=C(O)CNCP(=O)(O)O
2. OC/C=C/c1ccc(O)c(O)c1

Result block:
[1.01, 0.969]

Take each entry in turn and give its normalized growth.
1. NC(=O)c1cc[n+](CC2=C(C(=O)O)N3C(=O)C(NC(=O)C(c4ccccc4)S(=O)(=O)[O-])C3SC2)cc1 (centres undefined)
2. COc1cc(/C=C/C(=O)O)ccc1O
3. CCOC(N)=O

Result block:
0.99
0.983
1

Please give normalized growth for each item listed below.
1. O=C1CN(/N=C\c2ccc([N+](=O)[O-])o2)C(=O)N1
2. COc1c(C(=O)O)ccc2c1CCC(C)(C)O2
3. CC[C@@]1(C2O[C@@H](C3O[C@@](O)(CC)[C@H](C)C[C@@H]3C)C[C@@H]2C)CC[C@H]([C@]2(C)CCC3(C[C@H](O)[C@@H](C)[C@@H]([C@H](C)[C@@H](OC)[C@H](C)C(=O)O)O3)O2)O1 (some centres undefined)

Result block:
1. 0.994
2. 0.982
3. 1
